# reportedConditions: human, serum
reportedEndpoint: Hepatotoxicity (moderate)

{"molecule": "Cc1c(N)nc([C@@H](CC(N)=O)NC[C@@H](N)C(N)=O)nc1C(=O)N[C@@H](C(=O)N[C@@H](C)[C@H](O)[C@@H](C)C(=O)N[C@H](C(=O)NCCc1nc(-c2nc(C(=O)NCCCN(C)CCCN(Cc3ccc(OCc4ccccc4)c(OCc4ccccc4)c3)Cc3ccc(OCc4ccccc4)c(OCc4ccccc4)c3)cs2)cs1)[C@@H](C)O)C(O[C@H]1O[C@@H](CO)[C@H](O)[C@@H](O)[C@H]1O[C@H]1O[C@@H](CO)[C@@H](O)[C@H](OC(N)=O)[C@@H]1O)c1c[nH]cn1 (some centres not stated)", "assayValue": 1}
{"molecule": "NS(=O)(=O)c1cc2c(cc1Cl)N=CNS2(=O)=O [CHLOROTHIAZIDE]", "assayValue": 0}

====

# reportedConditions: human
Reported Hepatotoxicity (choleostasis) by item:

{"compound": "COCC1=C(C(=O)OC(C)OC(=O)OC(C)C)N2C(=O)[C@@H](NC(=O)/C(=N\\OC)c3csc(N)n3)[C@H]2SC1 (some centres undefined)", "Hepatotoxicity (choleostasis)": 0}
{"compound": "O=C(CCBr)N1CCN(C(=O)CCBr)CC1", "Hepatotoxicity (choleostasis)": 0}
{"compound": "CN1C(CSCC(F)(F)F)Nc2cc(Cl)c(S(N)(=O)=O)cc2S1(=O)=O (centres undefined) [POLYTHIAZIDE]", "Hepatotoxicity (choleostasis)": 1}
{"compound": "CC(=O)[C@@]1(O)CC[C@H]2[C@@H]3C=C(C)C4=CC(=O)CC[C@@H]4[C@H]3CC[C@@]21C", "Hepatotoxicity (choleostasis)": 0}

====

Reported Hepatotoxicity (time to onset) values for the following molecules.
# protocolDetails: Times to onset, minimal and maximal, observed in the indexed observations. [column 'DELAI' in source]
# reportedConditions: human
reportedEndpoint: Hepatotoxicity (time to onset)

{"molecule": "O=C(O)c1cc(/N=N/c2ccc(S(=O)(=O)Nc3ccccn3)cc2)ccc1O", "assayValue": "1 day - 1 year"}
{"molecule": "CN(C)CCC(c1ccc(Cl)cc1)c1ccccn1.O=C(O)/C=C\\C(=O)O (centres undefined) [CHLORPHENIRAMINE MALEATE]", "assayValue": "1 month"}
{"molecule": "CC[C@@H](CO)NC(=O)[C@@H]1C=C2c3cccc4[nH]cc(c34)C[C@H]2N(C)C1", "assayValue": "3 h"}
{"molecule": "C=CC1=C(C(=O)O)N2C(=O)[C@@H](NC(=O)/C(=N\\OCC(=O)O)c3csc(N)n3)[C@H]2SC1", "assayValue": "48 h"}
{"molecule": "CCCc1cc(=O)[nH]c(=S)[nH]1", "assayValue": "1 day - 1.3 years"}
{"molecule": "Cc1c(O)cccc1C(=O)N[C@@H](CSc1ccccc1)[C@H](O)CN1C[C@H]2CCCC[C@H]2C[C@H]1C(=O)NC(C)(C)C", "assayValue": "47 days - 17 months"}
{"molecule": "CC1=C(C(=O)O)N2C(=O)[C@@H](NC(=O)[C@H](N)c3ccccc3)[C@H]2SC1 [CEPHALEXIN ANHYDROUS]", "assayValue": "1 week - 9 days"}
{"molecule": "O=c1[nH]cc(F)c(=O)[nH]1", "assayValue": "1 month - 1 year"}
{"molecule": "CC(O)CCC(=O)c1ccoc1 (centres undefined)", "assayValue": "2 days - 8 days"}
